The values you see were collected from patent US20230144824A1.

biological target: human TLR7 (Homo sapiens, UniProt Q9NYK1); test: Human TLR7 agonist activity assay (HEK-Blue TLR7 SEAP reporter); settings: HEK-Blue TLR7 cells, 18 h treatment, average where assay performed multiple times, read-out: hTLR7 Agonism EC50
Sequence (Q9NYK1 27-1049): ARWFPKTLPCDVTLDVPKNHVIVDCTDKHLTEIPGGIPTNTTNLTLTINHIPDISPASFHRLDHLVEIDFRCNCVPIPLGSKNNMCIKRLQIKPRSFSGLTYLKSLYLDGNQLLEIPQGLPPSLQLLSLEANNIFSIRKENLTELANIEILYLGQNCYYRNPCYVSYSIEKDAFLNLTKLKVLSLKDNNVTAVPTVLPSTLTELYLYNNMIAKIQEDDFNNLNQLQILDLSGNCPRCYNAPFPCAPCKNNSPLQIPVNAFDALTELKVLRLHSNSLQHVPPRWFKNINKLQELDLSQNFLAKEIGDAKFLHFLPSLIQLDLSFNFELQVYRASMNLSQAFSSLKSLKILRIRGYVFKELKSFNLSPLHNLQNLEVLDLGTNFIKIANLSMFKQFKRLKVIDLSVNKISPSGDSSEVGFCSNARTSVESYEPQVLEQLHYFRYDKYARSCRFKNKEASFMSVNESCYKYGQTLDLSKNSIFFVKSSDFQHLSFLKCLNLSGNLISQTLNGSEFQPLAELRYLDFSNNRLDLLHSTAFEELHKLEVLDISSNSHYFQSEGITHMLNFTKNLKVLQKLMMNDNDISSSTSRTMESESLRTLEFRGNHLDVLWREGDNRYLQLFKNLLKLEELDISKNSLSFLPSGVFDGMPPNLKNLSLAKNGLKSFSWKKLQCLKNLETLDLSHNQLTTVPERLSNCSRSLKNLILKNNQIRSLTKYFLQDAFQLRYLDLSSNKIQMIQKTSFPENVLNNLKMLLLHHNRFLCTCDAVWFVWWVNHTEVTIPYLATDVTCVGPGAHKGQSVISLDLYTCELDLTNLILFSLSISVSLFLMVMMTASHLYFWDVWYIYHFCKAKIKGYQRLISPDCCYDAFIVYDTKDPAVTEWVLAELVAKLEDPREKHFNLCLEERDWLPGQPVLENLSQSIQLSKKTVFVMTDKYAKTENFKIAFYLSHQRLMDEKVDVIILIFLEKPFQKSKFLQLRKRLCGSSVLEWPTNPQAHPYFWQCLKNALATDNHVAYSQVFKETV
measured attribute: EC50 (nM)

# compound, EC50 [nM]
records = [
    ("CCC[C@@H](CCO)Nc1nc(N)nc2cnn(Cc3cnc(C4CCN(C)CC4)cc3OC)c12", 11),
    ("CCCCNc1nc(N)nc2cnn(Cc3ncc(C4CCN(C5CCCC5)CC4)cc3OC)c12", 27.3),
    ("COc1cc(C2CCN(C3CCOCC3)CC2)cnc1Cn1ncc2nc(N)nc(NCc3cc(C)on3)c21", 73.2),
    ("CCC[C@@H](CCO)Nc1nc(N)nc2cnn(Cc3ncc(C4CCN(CCO)CC4)cc3OC)c12", 57.8),
    ("CCC[C@@H](CCO)Nc1nc(N)nc2cnn(Cc3ccc(C4CN(CC(C)(C)O)CCN4)cc3OC)c12 (some centres unmarked)", 12.3),
]

[I] COc1cc(C2CCN(C(C)C)CC2)cnc1Cn1ncc2nc(N)nc(NCc3cc(C)on3)c21
[II] CCCCNc1nc(N)nc2cnn(Cc3ncc(C4CCN(C(CC)CC)CC4)cc3OC)c12
Qu. Name the one with the greater EC50 value, either I or II as given. Write down the label of the entry you select.
Ans. II
(II: 119 nM, I: 43.3 nM)

====

test system: CD69; assay: Induction of CD69 in human whole blood; format: cell-based; conditions: Homo sapiens, 17 h, 100% set to 1 uM of resiquimod, average where assay performed multiple times, read-out: hWB CD69 EC50
pEC50: −log10 of the molar value.
measured attribute: pEC50

Solved cases below.
# smiles text, numeric value
measured = [
    ("CCC[C@@H](CCO)Nc1nc(N)nc2cnn(Cc3ncc(C4CCN(C5CN(C)C5)CC4)cc3OC)c12", 8.25),
    ("CCC[C@@H](CCO)Nc1nc(N)nc2cnn(Cc3cnc(C4CCNCC4)cc3OC)c12", 7.65),
    ("COc1cc(C2CCN(C3CCOCC3)CC2)cnc1Cn1ncc2nc(N)nc(NCc3cc(C)on3)c21", 7.79),
    ("CCCCNc1nc(N)nc2cnn(Cc3ncc(C4CCN(C5CCS(=O)(=O)CC5)CC4)cc3OC)c12", 7.98),
]

[a] CCC[C@@H](CCO)Nc1nc(N)nc2cnn(Cc3ncc(C4CCN(C5CC6(CCC6)C5)CC4)cc3OC)c12
[b] CCCCNc1nc(N)nc2cnn(Cc3ncc(C4CCN(CC(C)(C)O)CC4)cc3OC)c12
Qu. Name the one with the greater pEC50 value, either a or b as given. Write down the label of the entry you select.
Ans. a
(a: 8.68, b: 7.59)

[1] CCCCNc1nc(N)nc2cnn(Cc3ncc(C4CCN(C5CNC5)CC4)cc3OC)c12
[2] CCCCNc1nc(N)nc2c(Cl)nn(Cc3ncc(C4CCN(C5CCCC5)CC4)cc3OC)c12
[3] CCC[C@@H](CCO)Nc1nc(N)nc2cnn(Cc3cnc(C4CCN(CCO)CC4)cc3OC)c12
[4] CCCCNc1nc(N)nc2cnn(Cc3ccc(C4CCN(S(C)(=O)=O)CC4)cc3OC)c12
[5] CCC[C@@H](CCO)Nc1nc(N)nc2cnn(Cc3ncc(N4CCN(CC(C)(C)O)CC4)cc3OC)c12
Qu. List the 5 entries from lowest pEC50 to highest pEC50 value. Submit the labels in the order that the ranking request calls for.
Ans. 2, 1, 4, 5, 3

[1] CCCCNc1nc(N)nc2cnn(Cc3ncc(C4=CC(C)(C)NC(C)(C)C4)cc3OC)c12
[2] CCCCNc1nc(N)nc2c(C3CC3)nn(Cc3ncc(C4CCN(C)CC4)cc3OC)c12
[3] CCCCNc1nc(N)nc2cnn(Cc3ncc(C4CCN(C5CCC5)CC4)cc3OC)c12
Qu. Arrange these compounds by their pEC50, starting with the largest number. Submit the labels in the order that the ranking request calls for.
Ans. 3, 1, 2
(3: 8.32, 1: 6.92, 2: 6.35)

[I] CCCCNc1nc(N)nc2cnn(Cc3ncc(C4CCN(C5COC5)CC4)cc3OC)c12
[II] CCCCNc1nc(N)nc2cnn(Cc3cc(F)c(N4CCN(S(C)(=O)=O)CC4)cc3OC)c12
Qu. Name the one with the greater pEC50 value, either I or II as given. Write down the label of the entry you select.
Ans. I
